// reported half-life at 1 μM per item
Test: Stability assay in rabbit aqueous humor
Format: in vitro ADME
Conditions: rabbit, aqueous humor, comparison table, aqueous humor; read-out: t½ AH
Protocol: Compounds are incubated at a concentration of 1 μM in rabbit aqueous humor (AH). Samples are taken at fixed time points and the remnant of compound is determined by LC-MS/MS after protein precipitation. Half life is expressed in minutes.

1. COC(=O)c1cccc(NC(=O)c2cccc(CN3CCC(Nc4cccc5cnccc45)C3)c2)c1 (stereo not shown) [Compound 32] : 1.63 h
2. CS(=O)(=O)Nc1cccc(CN2CCCC(Nc3ccc4[nH]ncc4c3)C2)c1 (stereo not shown) [Compound 1.091, reference compound] : > 2 h
3. O=C(OCC1CCCO1)c1cccc(CN2CCCC(Nc3ccc4[nH]ncc4c3)C2)c1 (stereo not shown) [Compound 14] : > 2 h

Fill in: half-life at 1 μM of CCOC(=O)COc1cccc(CN2CCCC(Nc3ccc4[nH]ncc4c3)C2)c1 (racemic) [Compound 1.060, reference compound] is ___ < 0.0833 h
